- Test: chemical genetic growth profiling, strain panel (AID 1159580);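 further: tested at 20 µM; growth read once vehicle control cultures reached saturation at 30 °C; 1 = growth at the plate median or of vehicle wells; lower values mean less growth of the strain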
- Stated conditions: S. cerevisiae deletion strains, growth OD, locus YPL078C, strain atp4, stronger effect = lower value
Among all 5,500 compounds or so, about 2,000 (36%) were called active. Inconclusive results (about 18%) are left out. Some of the results follow.
Returns: string. Value is 1 if measured normalized growth is below 1, and 0 if it is greater than or equal to it.

Consider CC(N=C(NC#N)Nc1ccncc1)C(C)(C)C (configuration not stated) . Does its normalized growth lie strictly below 1?
1

Proceed to O=C(CC(=O)c1ccccc1)c1ccccc1
1

Next entry: O=C(O)c1ccc(S(=O)(=O)N(Cl)Cl)cc1
0

Record: CCCN(CCC)S(=O)(=O)c1ccc(C(=O)O)cc1
1

Could you do the same for Nc1ccc(S(=O)(=O)NC(=O)c2ccccc2)cc1 , please?
0

// next record NC(=O)NC(=O)Cc1ccccc1
1

What do you have for COC1CC2CCC(C)C(O)(O2)C(=O)C(=O)N2CCCCC2C(=O)OC(C(C)CC2CCC(O)C(OC)C2)CC(=O)C(C)/C=C(\C)C(O)C(OC)C(=O)C(C)CC(C)/C=C/C=C/C=C/1C (configuration not stated) ?
1

====

- Test: chemical genetic growth profiling, strain panel (AID 1159580);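 further: tested at 20 µM; growth read once vehicle control cultures reached saturation at 30 °C; 1 = growth at the plate median or of vehicle wells; lower values mean less growth of the strain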
- Stated conditions: S. cerevisiae deletion strains, growth OD, locus YDR335W, strain msn5, stronger effect = lower value
The campaign covered roughly 5,500 compounds. About 2,000 (36%) were called active. Not shown: some 18% with an inconclusive outcome. This is one part of the list.
Labelling: normalized growth reported below 1 becomes YES; at or above becomes NO.

Lab note: normalized growth threshold 1. Does this molecule come in strictly under it? CC(=O)OCC(=O)[C@@]1(O)[C@H](C)CC2C3CCC4=CC(=O)C=C[C@]4(C)[C@@]3(F)[C@@H](O)C[C@@]21C (stereo not given in full)
YES

Now give it for CS(=O)(=O)c1ccc([C@@H](O)[C@@H](CO)NC(=O)C(Cl)Cl)cc1 too.
NO

Okay, and Cc1nc(N)cc(C[n+]2csc(CCO)c2C)n1 ?
YES

Queued: CC1=CCCC2C1(C)CCC(C)C2(C)CC/C(C)=C/C[n+]1cn(C)c2c(N)ncnc21 (stereo not given)
YES

Item: CC(Cc1cccc(C(F)(F)F)c1)NCCOC(=O)c1ccccc1 (stereo not given)
YES

====

- Test: chemical genetic growth profiling, strain panel (AID 1159580);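 further: tested at 20 µM; growth read once vehicle control cultures reached saturation at 30 °C; 1 = growth at the plate median or of vehicle wells; lower values mean less growth of the strain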
- Stated conditions: S. cerevisiae deletion strains, growth OD, locus YIL073C, strain SPO22, stronger effect = lower value
The campaign covered roughly 5,500 compounds. About 2,000 (36%) were called active. Inconclusive results (about 18%) are left out. The list shows a part of the results.
Readout kind: normalized growth
Please reply with the number alone, leaving off any unit.

// normalized growth lookup, key: C/C1=C\CC(C)(C)/C=C/CC2(C)OC2CC1 (stereo unspecified)
1.04

Request: CC(=O)O[C@@H]1CC2C(C)(C)C(=O)C=C[C@]2(C)C2CC[C@]3(C)C(=CC(=O)O[C@H]3c3ccoc3)[C@@]21C (stereo partly specified)
0.989

Next molecule: COc1ccc2cc(CCC(C)=O)ccc2c1
0.92

Lookup CN(C)C(=O)Oc1cccc([N+](C)(C)C)c1
0.965

Would you mind doing CNCCCC12CCC(c3ccccc31)c1ccccc12 as well?
0.918

Check CCN1CCN(C(=O)NC(C(=O)N[C@@H]2C(=O)N3[C@@H]2SC(C)(C)[C@@H]3C(=O)O)c2ccccc2)C(=O)C1=O (stereo partly specified) too.
1.05

Follow-up item: Cc1ccc2c(c1)C1(C)CCCC(C)(C(=O)O)C1CC2 (stereo unspecified)
1.03

Same for CN(C)[C@@H]1C(=O)C(C(N)=O)=C(O)[C@@]2(O)C(=O)C3=C(O)c4c(O)ccc(Cl)c4[C@@](C)(O)[C@H]3C[C@@H]12
0.976

What about C/C1=C/CC(C)(C)/C=C/C/C(C)=C/CC1 ?
0.95

Next: CCOC(=O)NNc1nncc2ccccc12
0.913

Check CC(=O)O[C@H]1CC[C@@]2(C)C(=CC(=O)C3C4CCC(C(C)CCCC(C)C)[C@@]4(C)CCC32)C1 (stereo partly specified) too.
1.03

Same again, this time with N[C@@H](CCC(=O)N[C@@H](CS)C(=O)NCC(=O)O)C(=O)O
0.952

Next record, please: CC(CCc1ccccc1)NCC(O)c1ccc(O)c(C(N)=O)c1 (stereo unspecified)
1.1

Follow-up item: O=P1(N(CCCl)CCCl)NCCCO1 (stereo unspecified)
1.01

Do the same for CCC(C)C(=O)OC1[C@@H]2CC3=C4CC(=O)O[C@@H](c5ccoc5)[C@]4(C)CCC3[C@@](C)(C2=O)[C@@H](CC(=O)OC)C1(C)C (stereo partly specified) please
1.06

Another molecule: CC(C)c1ccc2c(c1)CCC1C(C)(C(N)=O)CCCC21C (stereo unspecified)
0.833

Input Oc1c(Cl)cc(Cl)cc1Sc1cc(Cl)cc(Cl)c1O
0.942

Moving on to the next molecule: CC(=O)O[C@@H]1C=C[C@@]2(C)C(C[C@@H](OC(C)=O)[C@@]3(C)C4=CC(=O)O[C@@H](c5ccoc5)[C@]4(C)CCC23)C1(C)C (stereo partly specified)
1.03

Same question for CC(=O)O[C@@H]1CC[C@@]2(C)C(C[C@@H](OC(C)=O)[C@@]3(C)C4=CC(=O)O[C@@H](c5ccoc5)[C@]4(C)CCC23)C1(C)C (stereo partly specified) please.
0.996

Now consider COc1cc(C/C=C/c2ccccc2)c(OC)cc1O and answer again.
0.938

And what about the molecule COc1cc(C(C)=O)cc(OC)c1O ?
0.998
